Molecular target: T1, SNTG2, Q9NY99
T1 sequence (Q9NY99 68-166, limits assumed, looked up): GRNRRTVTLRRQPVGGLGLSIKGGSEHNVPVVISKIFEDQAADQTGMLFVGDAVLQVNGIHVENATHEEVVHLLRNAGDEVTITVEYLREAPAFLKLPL
Experiment: holdup assay
Design: key: below the threshold = too weak to quantify, mostly under pKd 3.1 to 4
Conditions: plain residues with an end cap or a label only (N-terminal biotin on a linker: ado-ado)

[
  {
    "binder": "SLNANEVEWF [RNF130, Q86XS8]",
    "pKd": "below the threshold"
  },
  {
    "binder": "EPQYQPGENL [SRC, P12931]",
    "pKd": "below the threshold"
  },
  {
    "binder": "MHIQEKGFHV [EPHA6, Q9UF33]",
    "pKd": "below the threshold"
  },
  {
    "binder": "PYPTADHMLA [JUP, P14923]",
    "pKd": "below the threshold"
  },
  {
    "binder": "TRKRSGEAAV [PFKM, P08237]",
    "pKd": "below the threshold"
  },
  {
    "binder": "GIKKITSTAL [RPS6KA3, P51812]",
    "pKd": 4.23
  },
  {
    "binder": "LKDDELKTKL [SLCO1A2, P46721]",
    "pKd": "below the threshold"
  },
  {
    "binder": "MQHQRTHTRV [ZSCAN30, Q86W11]",
    "pKd": 3.86
  },
  {
    "binder": "KRPEMTSSSV [MUC3B, MUC3A, Q02505;Q9H195]",
    "pKd": 3.9
  },
  {
    "binder": "DPAESMESLV [PTPRG, P23470]",
    "pKd": 4.24
  },
  {
    "binder": "GEDRSPPTAL [MKNK1, Q9BUB5]",
    "pKd": 3.7
  },
  {
    "binder": "NVYGIESVKI [GRIA2, P42262]",
    "pKd": "below the threshold"
  },
  {
    "binder": "RFQQRMQTHV [KIRREL1, Q96J84]",
    "pKd": "below the threshold"
  }
]
